Values compiled from ChEMBL document CHEMBL5724914.

Conditions: human gut metagenome, 24 h, 2 µM; further: call rule not given here
measured.metric: Bacterial Biotransformation

# molecule.smiles, assay.value
data = [
    ("COc1ccc([C@@H]2Sc3ccccc3N(CCN(C)C)C(=O)[C@@H]2OC(C)=O)cc1", "Compound NOT metabolized"),
    ("C=CC[C@@H]1/C=C(\\C)C[C@H](C)C[C@H](OC)[C@H]2O[C@@](O)(C(=O)C(=O)N3CCCC[C@H]3C(=O)O[C@H](/C(C)=C/[C@@H]3CC[C@@H](O)[C@H](OC)C3)[C@H](C)[C@@H](O)CC1=O)[C@H](C)C[C@@H]2OC.O", "Compound NOT metabolized"),
    ("CN1[C@@H]2CC[C@H]1C[C@@H](OC(=O)c1c[nH]c3ccccc13)C2", "Compound NOT metabolized"),
]
